tested_target: HIV-1 ZM233M.PB6 envelope (Env) on Env.IMC.LucR virus (HIV-1 clade C)
procedure_details: cell-based or functional assay
Label t when IC50 of virus neutralization (TZM-BL, luciferase) < 0.2 µg/mL; otherwise f.

Strictly below 0.2 µg/mL: is that where IC50 of virus neutralization (TZM-BL, luciferase) of Germ12_NglycoSA_CysCV (antibody, V domains shown) VH: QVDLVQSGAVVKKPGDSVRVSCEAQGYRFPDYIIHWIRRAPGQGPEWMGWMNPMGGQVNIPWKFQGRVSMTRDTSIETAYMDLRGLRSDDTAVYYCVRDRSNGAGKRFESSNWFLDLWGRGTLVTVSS VL: QSALTQPRSVSGSPGQSVTISCTGTHNLVSWVQHQPGRAPKLLIYDFNKRPSGVPDRFSGSGSGGTASLTISGLQDEDDAEYFCWAYEAFGGGTKLTVL sits?
f

Same again, this time with Cd4bs_H53MS_H54GY (antibody, V domains shown) VH: ADLVQSGAVVKKPGDSVRISCEAQGYRFPDYIIHWIRRAPGQGPEWMGWMNPSYGQVNIPWKFQGRVSMTRDTSIETAFLDLRGLKSDDTAVYYCVRDRSNGSGKRFESSNWFLDLWGRGTAVTIQS VL: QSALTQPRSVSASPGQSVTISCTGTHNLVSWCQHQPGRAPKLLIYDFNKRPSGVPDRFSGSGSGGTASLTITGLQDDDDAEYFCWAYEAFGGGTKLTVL
t

Same again, this time with NVS49-L1A2 (antibody, V domains shown) VH: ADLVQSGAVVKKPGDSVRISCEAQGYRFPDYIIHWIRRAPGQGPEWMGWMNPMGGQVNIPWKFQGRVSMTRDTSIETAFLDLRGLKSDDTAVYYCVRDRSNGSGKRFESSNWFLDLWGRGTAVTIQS VL: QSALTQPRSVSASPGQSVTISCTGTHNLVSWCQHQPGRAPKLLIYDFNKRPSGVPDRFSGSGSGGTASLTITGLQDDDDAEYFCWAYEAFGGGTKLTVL
f

Same again, this time with NglycoSA (antibody, V domains shown) VH: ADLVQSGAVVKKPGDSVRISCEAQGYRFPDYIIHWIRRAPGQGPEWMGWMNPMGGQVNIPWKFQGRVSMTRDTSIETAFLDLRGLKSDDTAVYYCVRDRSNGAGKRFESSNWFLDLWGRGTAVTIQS VL: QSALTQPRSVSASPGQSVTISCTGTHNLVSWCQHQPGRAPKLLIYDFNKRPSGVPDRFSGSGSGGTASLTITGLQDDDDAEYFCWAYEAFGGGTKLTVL
t

Same again, this time with CysCV (antibody, V domains shown) VH: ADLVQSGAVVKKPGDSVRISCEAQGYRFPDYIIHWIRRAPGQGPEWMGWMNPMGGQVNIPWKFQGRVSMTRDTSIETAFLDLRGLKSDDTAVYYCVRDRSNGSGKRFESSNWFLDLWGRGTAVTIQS VL: QSALTQPRSVSASPGQSVTISCTGTHNLVSWVQHQPGRAPKLLIYDFNKRPSGVPDRFSGSGSGGTASLTITGLQDDDDAEYFCWAYEAFGGGTKLTVL
t
